system: Panel CNS (Carcinoma cell lines); experiment: Inhibition of proliferation in NCI human CNS tumor cell lines; type: functional
Labelling: GI50 reported below 600 nM becomes criterion met; at or above becomes criterion not met.

| compound | class |
| --- | --- |
| COc1cc2c(cc1C)NC(=O)/C2=C/c1c(Cl)[nH]c2cc(C)c(OC)cc12 | criterion not met |
| COc1cc2c(/C=C3/C(=O)Nc4ccccc43)c(Cl)[nH]c2cc1C | criterion met |
| COc1cc2c(/C=C3/C(=O)N(C)c4ccccc43)c(Cl)[nH]c2cc1C | criterion met |
| COc1cc2c(/C=C3/C(=O)N(c4ccccc4)c4ccccc43)c(Cl)[nH]c2cc1C | criterion not met |
| COc1ccc2c(c1)/C(=C\c1c(Cl)[nH]c3cc(C)c(OC)cc13)C(=O)N2 | criterion not met |
| CC[C@]1(O)C[C@H]2CN(CCc3c([nH]c4ccccc34)[C@@](C(=O)OC)(c3cc4c(cc3OC)N(C=O)[C@H]3[C@@](O)(C(=O)OC)[C@H](OC(C)=O)[C@]5(CC)C=CCN6CC[C@]43[C@@H]65)C2)C1.O=S(=O)(O)O [VINCRISTINE SULFATE] | criterion met |
